- testedTarget: EGFR (Homo sapiens, UniProt P00533)
- Sequence (P00533 25-1210): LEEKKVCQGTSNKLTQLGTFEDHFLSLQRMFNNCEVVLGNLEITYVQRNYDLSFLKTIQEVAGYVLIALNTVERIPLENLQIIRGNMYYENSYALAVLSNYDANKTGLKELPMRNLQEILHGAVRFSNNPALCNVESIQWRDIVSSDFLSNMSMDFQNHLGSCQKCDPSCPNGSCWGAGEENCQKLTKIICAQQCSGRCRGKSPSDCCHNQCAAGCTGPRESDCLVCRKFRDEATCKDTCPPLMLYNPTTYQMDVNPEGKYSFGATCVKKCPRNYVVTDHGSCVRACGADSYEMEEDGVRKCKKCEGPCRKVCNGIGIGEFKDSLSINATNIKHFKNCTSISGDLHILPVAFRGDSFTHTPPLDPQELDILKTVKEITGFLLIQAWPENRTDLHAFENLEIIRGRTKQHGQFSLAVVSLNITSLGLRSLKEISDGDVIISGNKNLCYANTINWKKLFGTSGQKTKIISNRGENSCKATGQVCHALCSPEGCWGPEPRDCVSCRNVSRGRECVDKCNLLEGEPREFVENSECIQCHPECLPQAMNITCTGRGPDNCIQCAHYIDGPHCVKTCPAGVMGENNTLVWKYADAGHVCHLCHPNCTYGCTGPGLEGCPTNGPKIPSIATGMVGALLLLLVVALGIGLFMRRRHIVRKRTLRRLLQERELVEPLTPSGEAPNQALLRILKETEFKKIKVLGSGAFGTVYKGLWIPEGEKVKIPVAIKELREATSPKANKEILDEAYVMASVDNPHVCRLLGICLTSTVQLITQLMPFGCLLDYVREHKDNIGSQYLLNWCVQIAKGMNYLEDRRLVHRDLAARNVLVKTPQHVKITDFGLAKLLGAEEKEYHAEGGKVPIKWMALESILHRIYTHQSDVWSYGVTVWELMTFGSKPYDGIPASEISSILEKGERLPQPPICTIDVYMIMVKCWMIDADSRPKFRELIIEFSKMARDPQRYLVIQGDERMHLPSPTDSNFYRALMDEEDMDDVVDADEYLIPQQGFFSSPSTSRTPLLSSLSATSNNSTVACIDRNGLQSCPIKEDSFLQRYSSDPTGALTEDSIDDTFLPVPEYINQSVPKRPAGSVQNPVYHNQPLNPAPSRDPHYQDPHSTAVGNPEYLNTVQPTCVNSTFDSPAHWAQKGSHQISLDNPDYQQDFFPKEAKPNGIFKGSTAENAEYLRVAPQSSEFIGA
- assayNotes: EGFR signaling (pEGFR Tyr1068/total EGFR MSD) in A431 cells
- Format: cell-based
- Parameters: endogenous in cells; host or cells: A431, N87
- conditionSummary: ratio A431 pEGFR EC50 to BT474 pHER2 EC50
endpointLabel: Selectivity A431 EC50/BT474 EC50

>>> valuemeasured("Cc1cc(Nc2ncnc3sc4c(c23)CN(C(=O)/C=C/CN(C)C)C4)ccc1Oc1ccc2ncnn2c1")
"A (A: ≥100)"
>>> valuemeasured("CC(=O)N1CCN(C/C=C/C(=O)N2CCc3c(sc4ncnc(Nc5ccc(Oc6ccc(C)nc6)c(C)c5)c34)C2)CC1")
"C (C: ≥ 10 and < 20)"
>>> valuemeasured("Cc1cc(Nc2ncnc3sc4c(c23)CCN(C(=O)/C=C/CN2CC(C)(C)OC(C)(C)C2)C4)ccc1Oc1ccc2ncnn2c1")
"A (A: ≥100)"
>>> valuemeasured("C=CC(=O)N1Cc2sc3ncnc(Nc4ccc(Oc5ccc(C)nc5)c(C)c4)c3c2C(C)C1 (single isomer, unassigned) [Compound 145]")
"C (C: ≥ 10 and < 20)"
>>> valuemeasured("Cc1ccc(Oc2ccc(Nc3ncnc4sc5c(c34)CCN(C(=O)/C=C/CN3CC4(CCCC4)C3)C5)cc2C)cn1")
"C (C: ≥ 10 and < 20)"

Input: Which Selectivity A431 EC50/BT474 EC50 reading was recorded for the compound CCOC/C=C/C(=O)N1CCc2c(sc3ncnc(Nc4ccc(Oc5ccc(C)nc5)c(C)c4)c23)C1 ?
Output: C (C: ≥ 10 and < 20)

Input: Which Selectivity A431 EC50/BT474 EC50 reading was recorded for the compound COCCN1CCN(C/C=C/C(=O)N2CCc3c(sc4ncnc(Nc5ccc(Oc6ccc(C)nc6)c(C)c5)c34)C2)CC1 ?
Output: B (B: ≥ 20 and < 100)

Input: Which Selectivity A431 EC50/BT474 EC50 reading was recorded for the compound Cc1ccc(Oc2ccc(Nc3ncnc4sc5c(c34)CCN(C(=O)/C=C/CN3CC4CC(C3)O4)C5)cc2C)cn1 ?
Output: B (B: ≥ 20 and < 100)

Input: Which Selectivity A431 EC50/BT474 EC50 reading was recorded for the compound Cc1ccc(Oc2ccc(Nc3ncnc4sc5c(c34)CCN(C(=O)/C=C/CN3CC(CO)(CO)C3)C5)cc2C)cn1 ?
Output: B (B: ≥ 20 and < 100)

Input: Which Selectivity A431 EC50/BT474 EC50 reading was recorded for the compound Cc1ccc(Oc2ccc(Nc3ncnc4sc5c(c34)CCN(C(=O)/C=C/CN3C[C@H]4C[C@@H]3CC4C#N)C5)cc2C)cn1 (stereo partly drawn) ?
Output: B (B: ≥ 20 and < 100)

Input: Which Selectivity A431 EC50/BT474 EC50 reading was recorded for the compound Cc1ccc(Oc2ccc(Nc3ncnc4sc5c(c34)CCN(C(=O)/C=C/CN3CC4CC(C4)C3)C5)cc2C)cn1 ?
Output: D (D: ≥ 5 and < 10)

Input: Which Selectivity A431 EC50/BT474 EC50 reading was recorded for the compound Cc1ccc(Oc2ccc(Nc3ncnc4sc5c(c34)CCN(C(=O)/C=C/CNC3CC3)C5)cc2C)cn1 ?
Output: B (B: ≥ 20 and < 100)

Input: Which Selectivity A431 EC50/BT474 EC50 reading was recorded for the compound Cc1ccc(Oc2ccc(Nc3ncnc4sc5c(c34)CCN(C(=O)/C=C/CN3CCOCC34CCC4)C5)cc2C)cn1 ?
Output: D (D: ≥ 5 and < 10)

Input: Which Selectivity A431 EC50/BT474 EC50 reading was recorded for the compound O=C(/C=C/CN1CC2CC1CO2)N1CCc2c(sc3ncnc(Nc4ccc(Oc5ccc6ncnn6c5)c(Cl)c4)c23)C1 (stereo not drawn) ?
Output: B (B: ≥ 20 and < 100)

Input: Which Selectivity A431 EC50/BT474 EC50 reading was recorded for the compound Cc1ccc(Oc2ccc(Nc3ncnc4sc5c(c34)CCN(C(=O)/C=C/CNCc3ccsc3)C5)cc2C)cn1 ?
Output: D (D: ≥ 5 and < 10)

Input: Which Selectivity A431 EC50/BT474 EC50 reading was recorded for the compound Cc1ccc(Oc2ccc(Nc3ncnc4[nH]c5c(c34)CN(C(=O)/C=C/CN(C)C)CC5)cc2C)cn1 ?
Output: B (B: ≥ 20 and < 100)

Input: Which Selectivity A431 EC50/BT474 EC50 reading was recorded for the compound Cc1cc(Nc2ncnc3sc4c(c23)CCN(C(=O)/C=C/CN(C)C)C4)ccc1Oc1ccc2nonc2c1 ?
Output: D (D: ≥ 5 and < 10)

Input: Which Selectivity A431 EC50/BT474 EC50 reading was recorded for the compound Cc1ccc(Oc2ccc(Nc3ncnc4sc5c(c34)CCN(C(=O)/C=C/CN3CC=CCC3)C5)cc2C)cn1 ?
Output: B (B: ≥ 20 and < 100)

Input: Which Selectivity A431 EC50/BT474 EC50 reading was recorded for the compound Cc1cc(Nc2ncnc3sc4c(c23)CCN(C(=O)/C=C/CN(C)C(C)(C)C)C4)ccc1Oc1ccc2ncnn2c1 ?
Output: B (B: ≥ 20 and < 100)

Input: Which Selectivity A431 EC50/BT474 EC50 reading was recorded for the compound Cc1ccc(Oc2ccc(Nc3ncnc4sc5c(c34)CCN(C(=O)/C=C/CNCCO)C5)cc2C)cn1 ?
Output: D (D: ≥ 5 and < 10)

====

- testedTarget: EGFR (Homo sapiens, UniProt P00533)
- assayNotes: EGFR signaling (pEGFR Tyr1068/total EGFR MSD) in A431 cells
- Assay type: cell-based
- Design: endogenous in cells; host or cells: A431, N87
- conditionSummary: ratio A431 pEGFR EC50 to HEK YVMA pHER2 EC50
endpointLabel: Selectivity A431 EC50/HEKYVMA EC50

>>> valuemeasured("CN(C)C/C=C/C(=O)N1CCc2c(sc3ncnc(Nc4ccc(Oc5ccc6ncnn6c5)c(Cl)c4)c23)C1")
"B (B: ≥ 20 and < 100)"
>>> valuemeasured("COc1ccc(Oc2ccc(Nc3ncnc4sc5c(c34)CN(C(=O)/C=C/CN(C)C)C5)cc2C)cn1")
"B (B: ≥ 20 and < 100)"
>>> valuemeasured("Cc1cc(Nc2ncnc3sc4c(c23)CCN(C(=O)/C=C/CN(C)C)C4)ccc1Oc1ccc2ncnn2c1")
"E (E: >1 and < 5)"
>>> valuemeasured("Cc1ccc(Oc2ccc(Nc3ncnc4sc5c(c34)CCN(C(=O)/C=C/CNCC3CN(C)CCO3)C5)cc2C)cn1 (stereo not shown)")
"B (B: ≥ 20 and < 100)"

Now, please, on to the next compound.
Input: Which Selectivity A431 EC50/HEKYVMA EC50 reading was recorded for the compound Cc1cc(Nc2ncnc3sc4c(c23)CCN(C(=O)/C=C/CN(C)C)C4)ccc1Oc1cccc(B(O)O)c1 ?
Output: E (E: >1 and < 5)

====

- testedTarget: EGFR (Homo sapiens)
- assayNotes: EGFR occupancy in N87 cells
- Format: cell-based
- Parameters: endogenous in cells; host or cells: N87
- conditionSummary: N87 cells; concentration at which 50% of EGFR is irreversible bound; read-out: N87 EGFR Occ
pEC50: −log10 of the molar value.
endpointLabel: pEC50

>>> valuemeasured("Cc1ccc(Oc2ccc(Nc3ncnc4sc5c(c34)CCN(C(=O)/C=C/CN3CC4CC(C3)O4)C5)cc2C)cn1")
"> 7.00"
>>> valuemeasured("Cc1ccc(Oc2ccc(Nc3ncnc4sc5c(c34)CCN(C(=O)/C=C/CN(C)C)C5)cc2C)cn1")
"> 7.00"
>>> valuemeasured("Cc1ccc(Oc2ccc(Nc3ncnc4sc5c(c34)CCN(C(=O)/C=C/CN3CCOCC3)C5)cc2C)cn1")
"6.46 to 7.00"
>>> valuemeasured("COc1ccc(Oc2ccc(Nc3ncnc4sc5c(c34)CN(C(=O)/C=C/CN(C)C)C5)cc2C)cn1")
"< 6.00"
>>> valuemeasured("Cc1ccc(Oc2ccc(Nc3ncnc4sc5c(c34)CCN(C(=O)/C=C/CN3CC4CCC3C4)C5)cc2C)cn1 (centres unmarked)")
"> 7.00"

Input: Which pEC50 reading was recorded for the compound COc1ccc(Oc2ccc(Nc3ncnc4sc5c(c34)CCN(C(=O)/C=C/CN(C)C)C5)cc2C)cn1 ?
Output: 6.46 to 7.00

Input: Which pEC50 reading was recorded for the compound Cc1ccc(Oc2ccc(Nc3ncnc4sc5c(c34)CN(C(=O)/C=C/CN(C)C)C5)cc2Cl)cn1 ?
Output: 6.46 to 7.00

Input: Which pEC50 reading was recorded for the compound Cc1cc(Nc2ncnc3sc4c(c23)CCN(C(=O)/C=C/CN2CCOCC2)C4)ccc1Oc1ccc2ncnn2c1 ?
Output: < 6.00

====

- testedTarget: UniProt P00533
- assayNotes: EGFR signaling (pEGFR Tyr1068/total EGFR MSD) in A431 cells
- Type: cell-based
- Parameters: endogenous in cells; host or cells: A431, N87
- conditionSummary: ratio A431 pEGFR EC50 to BT474 pHER2 EC50
Structures can show the parent of a compound that is named as a salt.
endpointLabel: Selectivity A431 EC50/BT474 EC50

>>> valuemeasured("Cc1ccc(Oc2ccc(Nc3ncnc4sc5c(c34)CCN(C(=O)/C=C/CN3CC4CCC(C4)C3)C5)cc2C)cn1 [Compound 16, benzenesulfonate salt]")
"D (D: ≥ 5 and < 10)"
>>> valuemeasured("Cc1ccc(Oc2ccc(Nc3ncnc4sc5c(c34)C[C@@H](C)N(C(=O)/C=C/CN(C)C)[C@@H]5C)cc2C)cn1 (racemic)")
"B (B: ≥ 20 and < 100)"
>>> valuemeasured("CC[C@H](NC/C=C/C(=O)N1CCc2c(sc3ncnc(Nc4ccc(Oc5ccc(C)nc5)c(C)c4)c23)C1)C(F)(F)F")
"B (B: ≥ 20 and < 100)"
>>> valuemeasured("Cc1ccc(Oc2ccc(Nc3ncnc4sc5c(c34)CCN(C(=O)/C=C/CNCCS(C)(=O)=O)C5)cc2C)cn1")
"C (C: ≥ 10 and < 20)"
>>> valuemeasured("Cc1ccc(Oc2ccc(Nc3ncnc4sc5c(c34)CCN(C(=O)/C=C/CN[C@H]3CC[C@H](OCC(F)(F)F)CC3)C5)cc2C)cn1")
"D (D: ≥ 5 and < 10)"
>>> valuemeasured("C#CCOCCN(C)C/C=C/C(=O)N1CCc2c(sc3ncnc(Nc4ccc(Oc5ccc(C)nc5)c(C)c4)c23)C1")
"B (B: ≥ 20 and < 100)"

Input: Which Selectivity A431 EC50/BT474 EC50 reading was recorded for the compound Cc1nc2cc(Oc3ccc(Nc4ncnc5sc6c(c45)CCN(C(=O)/C=C/CN(C)C)C6)cc3C)ccn2n1 ?
Output: A (A: ≥100)

Input: Which Selectivity A431 EC50/BT474 EC50 reading was recorded for the compound Cc1ccc(Oc2ccc(Nc3ncnc4sc5c(c34)C(C)CN(C(=O)/C=C/CN3CCOCC3)C5)cc2C)cn1 (stereo not drawn) ?
Output: B (B: ≥ 20 and < 100)

Input: Which Selectivity A431 EC50/BT474 EC50 reading was recorded for the compound COc1ccc(Oc2ccc(Nc3ncnc4sc5c(c34)CCN(C(=O)/C=C/CN(C)C(C)(C)C)C5)cc2C)cn1 ?
Output: D (D: ≥ 5 and < 10)
